All values here come from patent US7423153B2.

# test_description: Interconversion of crystalline forms by thermal treatment (XRD before and after heating)
# Assay type: physicochemical
# assay_context: 120° C., 1 h

compound	form Obtained after heating (XRD)
COc1c(N2CCNC(C)C2)c(F)cc2c(=O)c(C(=O)O)cn(C3CC3)c12 (centres unmarked) [form J, gatifloxacin]	omega
COc1c(N2CCNC(C)C2)c(F)cc2c(=O)c(C(=O)O)cn(C3CC3)c12 (centres unmarked) [hemihydrate, gatifloxacin]	T2RP
